assay: qHTS assay to identify small molecule agonists of the endoplasmic reticulum stress response signaling pathway - cell viability counter screen (AID 1159517); settings: ESRE-bla HeLa viability, CellTiter-Glo luminescence, 5 h; series mostly up to 61 µM;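 also: HeLa cells carrying an ER stress response element beta-lactamase reporter; nearly all actives have a fitted effect of over 50% in size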
Records with an inconclusive call do not appear. Activity calls are given as the source filed them. Calls follow the shape of the full dose curve.
Measurement Kind: outcome

Answered examples (7):
CC1(C)CC(N=C=O)CC(C)(CN=C=O)C1 (stereo not drawn) ... inactive
Cc1ccc(N)c(S(=O)(=O)O)c1 ... inactive
CCCCCCOC(C)=O ... inactive
Cn1c([N+](=O)[O-])cnc1COC(N)=O ... inactive
CC[Si](OC(C)=O)(OC(C)=O)OC(C)=O ... inactive
Nc1c(S(=O)(=O)O)cc(Br)c2c1C(=O)c1ccccc1C2=O ... inactive
CCCCOCCO ... inactive

Request: Form field: reported outcome of NC(=O)NNc1ccccc1
Response: inactive

====

experiment: qHTS assay for small molecules that induce genotoxicity in human embryonic kidney cells expressing luciferase-tagged ATAD5 (AID 651632); conditions: HEK293T ATAD5-luciferase induction, 16 h; series mostly up to 83.3 µM; also: nearly all actives have a fitted effect of over 15% in size
Results filed as inconclusive are left out. The source made the active and inactive calls. The call rests on the fitted dose curve; in most records, active means well fitted activation curve with a large enough effect in the repeat runs; inconclusive means weak or mixed curves; inactive means no such curve, though single readings can be large or run the other way.
Measurement Kind: outcome

Answered examples (8):
Clc1ccc(Cl)c(Cl)c1Cl ... inactive
CCCCCCCCCCCCN ... inactive
CCCCC(CC)COC(=O)CCCCCCCC(=O)OCC(CC)CCCC (centres undefined) ... inactive
CCCCCCCCCC(=O)O ... inactive
NCCNCCNCCNCCN ... inactive
Nc1nc2ncc(CNc3ccc(C(=O)N[C@@H](CCC(=O)O)C(=O)O)cc3)nc2c(=O)[nH]1 ... inactive
O=S(=O)(Oc1ccc(Cl)cc1Cl)c1ccccc1 ... inactive
O=S(=O)(O)c1cc(S(=O)(=O)O)c2c(N=Nc3ccccc3)c(O)ccc2c1 ... inactive

Request: Form field: reported outcome of Cc1ccc(N)c(S(=O)(=O)O)c1
Response: inactive

Request: Form field: reported outcome of CCCCCC/C=C/CCCCCCCC(=O)O
Response: inactive

Request: Form field: reported outcome of C=C(C)C(=O)OCCC[Si](OC)(OC)OC
Response: inactive

Request: Form field: reported outcome of CCCCCCCCC
Response: inactive

Request: Form field: reported outcome of CCC(=O)O
Response: inactive

Request: Form field: reported outcome of O=C1O[C@H](CO)[C@@H](O)[C@H](O)[C@H]1O
Response: inactive

====

experiment: qHTS assay to identify small molecule antagonists of the estrogen receptor beta (ER-beta) signaling pathway - cell viability counter screen (AID 1259382); details: ER-beta-UAS-bla HEK293T viability, CellTiter-Glo luminescence, 16 h; series mostly up to 92.4 µM;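 also: HEK293T cells carrying ER-beta-UAS-bla reporter stimulated with estradiol; nearly all actives have a fitted effect of over 55% in size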
Inconclusive results are not listed. Activity calls are given as the source filed them. Calls come from the whole dose curve; as a rule, active = well fitted cell-killing curve with a large enough effect in the repeat runs; inconclusive = weak or mixed curves; inactive = flat fitted curve, though single readings scatter.
Measurement Kind: outcome

C=C(C)C(=O)OCCCCCC ... inactive
CN(C)c1ccc(C(=N)c2ccc(N(C)C)cc2)cc1 ... inactive
C=C1C2CCC(C2)C1(C)C (centres undefined) ... inactive
C=C(C)C(=O)OCCCCCCCCCCCC ... inactive
C=C(C)C(=O)OCC(CC)(COC(=O)C(=C)C)COC(=O)C(=C)C ... inactive

Request: Form field: reported outcome of O=[N+]([O-])c1cc(N(CCO)CCO)ccc1NCCO
Response: inactive

Request: Form field: reported outcome of CCOC(=O)[C@H](CCc1ccccc1)N[C@@H](C)C(=O)N1Cc2ccccc2C[C@H]1C(=O)O
Response: inactive

Request: Form field: reported outcome of OC[C@@H](O)[C@H](O)[C@H](O)[C@@H](O)CO
Response: inactive

Request: Form field: reported outcome of C[C@@H]1O[C@@H](OC[C@H]2O[C@@H](Oc3c(-c4ccc(O)c(O)c4)oc4cc(O)cc(O)c4c3=O)[C@H](O)[C@@H](O)[C@@H]2O)[C@H](O)[C@H](O)[C@H]1O
Response: inactive

====

assay: qHTS RealTime-Glo MT Cell Viability Assay in HEK293 cells - 32 hour (AID 1224868); details: RealTime-Glo luminescence; series mostly up to 76.8 µM; also: top concentration of the series differs between compounds; nearly all actives have a fitted effect of over 50% in size
Records with an inconclusive call do not appear. Activity calls are given as the source filed them. Calls come from the whole dose curve; as a rule, active = well fitted cell-killing curve with a large enough effect in the repeat runs; inconclusive = weak or mixed curves, or effect the other way; inactive = flat fitted curve, though single readings scatter.
Measurement Kind: outcome

Answered examples (8):
CCCCOCCOCCOC(=O)CCCCC(=O)OCCOCCOCCCC ... inactive
OC1CCCC1 ... inactive
CCCCNC(N)=O ... inactive
CC(C)n1c(/C=C/[C@@H](O)C[C@@H](O)CC(=O)O)c(-c2ccc(F)cc2)c2ccccc21 ... inactive
O=C(c1cc(O)c(O)c(O)c1)c1ccc(O)c(O)c1O ... inactive
CCC(=O)O ... inactive
CC1COc2ccccc2N1C(=O)C(Cl)Cl (stereo not drawn) ... inactive
CC(C)(C)C(=O)C1C(=O)c2ccccc2C1=O ... inactive

Request: Form field: reported outcome of OCCOCCOCCOCCO
Response: inactive

Request: Form field: reported outcome of CN(CCOc1ccc(CC2SC(=O)NC2=O)cc1)c1ccccn1 (stereo not drawn)
Response: inactive

Request: Form field: reported outcome of CCCCCCCCCCC=CC1CC(=O)OC1=O (stereo not drawn)
Response: inactive

Request: Form field: reported outcome of C[C@@H](O)[C@H]1C(=O)N2C(C(=O)O)=C(S[C@@H]3CN[C@H](C(=O)N(C)C)C3)[C@H](C)[C@H]12
Response: inactive

Request: Form field: reported outcome of CCOC(=O)/C=C\C(=O)OCC
Response: inactive

====

target: Cytochrome P450 2C19 (Homo sapiens); test: Cytochrome P450 Family 2 Subfamily C Member 19 (CYP2C19) small molecule antagonists: luciferase reporter qHTS assay (AID 1671197); details: P450-Glo CYP2C19 enzyme, luciferin luminescence, 1 h; series mostly up to 115 µM; also: nearly all actives have a fitted effect of over 65% in size
Inconclusive results are not listed. Calls of active or inactive are those of the source. The call rests on the fitted dose curve; in most records, active means well fitted inhibition curve with a large enough effect in the repeat runs; inconclusive means weak or mixed curves; inactive means no such curve, though single readings can be large or run the other way.
Thanks in advance; please answer with one of these: active, inactive

O=Nc1ccc(O)cc1 ... active
CC(=O)Nc1ccc(C(=O)O)cc1 ... inactive
CC#C[C@]1(O)CC[C@H]2[C@@H]3CCC4=CC(=O)CCC4=C3[C@@H](c3ccc(N(C)C)cc3)C[C@@]21C ... active

Request: Fill in: this test's call for C=C(C)C(=O)OCCCCCC is ___
Response: inactive

Request: Fill in: this test's call for CCCCCCOC(C)=O is ___
Response: inactive

Request: Fill in: this test's call for CC1(C)O[C@@H]2C[C@H]3[C@@H]4C[C@H](F)C5=CC(=O)CC[C@]5(C)[C@H]4[C@@H](O)C[C@]3(C)[C@]2(C(=O)CO)O1 is ___
Response: inactive

Request: Fill in: this test's call for O=C1O[C@H](CO)[C@@H](O)[C@H](O)[C@H]1O is ___
Response: inactive

Request: Fill in: this test's call for C=C(C)C(=O)OCCC[Si](OC)(OC)OC is ___
Response: active

Request: Fill in: this test's call for CC1CC(OC(=O)c2ccccc2O)CC(C)(C)C1 (stereo not drawn) is ___
Response: inactive

Request: Fill in: this test's call for CC(C)Cc1ccccc1 is ___
Response: inactive

====

target: Thyrotropin receptor (Homo sapiens) (UniProt P16473); assay: qHTS assay to identify small molecule antagonists of the thyroid stimulating hormone receptor (TSHR) signaling pathway (AID 1259385); conditions: TSHR-HEK293 cAMP HTRF, TSH-stimulated antagonist mode; series mostly up to 92.4 µM; also: nearly all actives have a fitted effect of over 20% in size
Sequence (P16473 whole entry, looked up): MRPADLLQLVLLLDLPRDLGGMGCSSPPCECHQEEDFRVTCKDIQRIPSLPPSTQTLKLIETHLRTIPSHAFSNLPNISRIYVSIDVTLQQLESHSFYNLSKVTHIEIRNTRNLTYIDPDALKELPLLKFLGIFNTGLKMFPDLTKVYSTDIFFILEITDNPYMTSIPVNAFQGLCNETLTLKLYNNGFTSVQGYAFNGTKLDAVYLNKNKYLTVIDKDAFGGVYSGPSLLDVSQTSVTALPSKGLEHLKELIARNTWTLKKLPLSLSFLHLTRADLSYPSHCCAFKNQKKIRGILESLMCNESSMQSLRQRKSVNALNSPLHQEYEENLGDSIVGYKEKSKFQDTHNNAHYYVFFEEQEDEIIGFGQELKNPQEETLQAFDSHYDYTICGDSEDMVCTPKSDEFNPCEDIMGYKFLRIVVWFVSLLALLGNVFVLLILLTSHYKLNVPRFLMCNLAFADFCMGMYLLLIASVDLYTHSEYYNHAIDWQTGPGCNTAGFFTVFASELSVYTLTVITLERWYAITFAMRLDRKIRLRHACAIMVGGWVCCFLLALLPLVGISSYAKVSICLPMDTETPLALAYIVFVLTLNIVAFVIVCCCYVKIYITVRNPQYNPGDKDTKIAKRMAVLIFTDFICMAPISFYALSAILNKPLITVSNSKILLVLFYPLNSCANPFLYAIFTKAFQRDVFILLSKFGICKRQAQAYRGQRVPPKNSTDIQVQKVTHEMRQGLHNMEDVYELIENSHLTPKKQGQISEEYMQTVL
Inconclusive results are not listed. Active and inactive are the calls of the source. Calls follow the shape of the full dose curve.
Measurement Kind: outcome

Answered examples (5):
CCCCC(CC)C(=O)OCCOCCOCCOC(=O)C(CC)CCCC (configuration not stated) ... inactive
Cc1ccc(N)c(S(=O)(=O)O)c1 ... inactive
CCCCC(CC)COC(=O)/C=C\C(=O)OCC(CC)CCCC (configuration not stated) ... inactive
CC1=C(/C=C/C(C)=C/C=C/C(C)=C/CO)C(C)(C)CCC1 ... inactive
O=c1c(-c2ccc(O)cc2)coc2cc(O)ccc12 ... inactive

Below: the item to evaluate.
Request: Form field: reported outcome of C[C@@H]1O[C@@H](OC[C@H]2O[C@@H](Oc3c(-c4ccc(O)c(O)c4)oc4cc(O)cc(O)c4c3=O)[C@H](O)[C@@H](O)[C@@H]2O)[C@H](O)[C@H](O)[C@H]1O
Response: inactive

====

molecular target: Aryl hydrocarbon receptor (Homo sapiens) (UniProt P35869); assay: qHTS assay to identify small molecule that activate the aryl hydrocarbon receptor (AhR) signaling pathway (AID 743085); conditions: HepG2 AhR-luc (HG2L7.5c1), luciferase, 24 h; series mostly up to 70.3 µM; also: nearly all actives have a fitted effect of over 15% in size;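 as to activation: HG2L7.5c1 human HepG2 liver cells with stably integrated DRE-driven firefly reporter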
Sequence (P35869 whole entry, looked up): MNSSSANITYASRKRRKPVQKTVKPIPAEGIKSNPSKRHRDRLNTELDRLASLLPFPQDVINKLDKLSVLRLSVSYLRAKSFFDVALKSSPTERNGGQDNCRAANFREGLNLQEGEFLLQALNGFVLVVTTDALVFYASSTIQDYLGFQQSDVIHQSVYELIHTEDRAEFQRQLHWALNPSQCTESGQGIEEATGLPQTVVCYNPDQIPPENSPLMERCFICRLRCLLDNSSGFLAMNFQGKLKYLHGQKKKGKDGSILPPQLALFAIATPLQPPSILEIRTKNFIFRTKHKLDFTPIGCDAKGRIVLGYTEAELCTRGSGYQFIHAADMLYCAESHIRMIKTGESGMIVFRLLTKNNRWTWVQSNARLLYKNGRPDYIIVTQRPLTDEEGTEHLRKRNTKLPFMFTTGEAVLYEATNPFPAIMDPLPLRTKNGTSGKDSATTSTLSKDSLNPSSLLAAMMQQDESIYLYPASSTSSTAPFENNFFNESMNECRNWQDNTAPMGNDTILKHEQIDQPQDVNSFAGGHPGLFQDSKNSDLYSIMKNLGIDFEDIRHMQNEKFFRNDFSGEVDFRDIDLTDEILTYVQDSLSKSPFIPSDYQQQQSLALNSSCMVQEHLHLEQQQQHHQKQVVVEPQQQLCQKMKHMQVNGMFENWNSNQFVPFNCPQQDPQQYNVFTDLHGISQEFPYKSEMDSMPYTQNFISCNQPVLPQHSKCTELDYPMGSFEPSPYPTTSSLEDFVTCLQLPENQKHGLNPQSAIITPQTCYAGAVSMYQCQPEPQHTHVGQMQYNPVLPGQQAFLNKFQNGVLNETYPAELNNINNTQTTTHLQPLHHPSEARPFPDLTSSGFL
Records with an inconclusive call do not appear. Calls of active or inactive are those of the source. Calls follow the shape of the dose curve; as a rule, active = well fitted activation curve with a large enough effect in the repeat runs; inconclusive = weak or mixed curves; inactive = no such curve, though single readings can be large or run the other way.
Thanks in advance; please answer with one of these: 1 (active), 0 (inactive)

Example cases with answers are listed next.
O=C(Oc1ccccc1)c1ccc(O)cc1 ... 0
Clc1ccc(Cl)c(Cl)c1Cl ... 0
C=C(C)C(=O)OCCC[Si](OC)(OC)OC ... 0
O=C(c1cc(O)c(O)c(O)c1)c1ccc(O)c(O)c1O ... 1
NS(=O)(=O)c1cc2c(cc1Cl)NC=NS2(=O)=O ... 0

Consider the additional compound presented here.
Request: Fill in: this test's call for C=C(C)C(=O)OCC(CC)(COC(=O)C(=C)C)COC(=O)C(=C)C is ___
Response: 0
